system: leukotriene synthesis in human leukocytes; assay: inhibition of leukotriene synthesis in human leukocytes; assay type: cell-based; settings: Leukocyte; human leukocytes at similar protein concentrations
Parameter measured: IC50 (nM)
The reply should contain only the number, in nM.

Reported IC50 for "CC(C)c1ccc2c(c1)c(SC(C)(C)C)c(CC(C)(C)C(=O)O)n2Cc1ccc(Cl)cc1" : what is it?
100

Reference source: patent US5182367A
